# activity at 0.25 h, 10 µM per entry
# experimental-target: CYP1A2 (Homo sapiens, UniProt P05177)
# Sequence (P05177 whole entry): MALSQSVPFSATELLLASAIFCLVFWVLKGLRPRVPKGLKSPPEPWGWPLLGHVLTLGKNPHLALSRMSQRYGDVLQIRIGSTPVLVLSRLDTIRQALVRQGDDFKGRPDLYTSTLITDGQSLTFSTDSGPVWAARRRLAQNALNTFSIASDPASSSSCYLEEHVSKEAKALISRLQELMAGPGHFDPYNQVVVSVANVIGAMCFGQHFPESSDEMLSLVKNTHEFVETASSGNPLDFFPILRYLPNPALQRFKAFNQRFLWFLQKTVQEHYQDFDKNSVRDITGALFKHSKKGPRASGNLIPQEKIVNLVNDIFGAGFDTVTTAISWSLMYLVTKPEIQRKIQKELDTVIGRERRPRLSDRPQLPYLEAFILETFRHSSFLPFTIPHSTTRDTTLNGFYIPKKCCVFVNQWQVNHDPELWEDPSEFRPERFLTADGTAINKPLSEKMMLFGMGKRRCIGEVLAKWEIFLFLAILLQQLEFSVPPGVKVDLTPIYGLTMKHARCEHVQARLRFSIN
# measurement-description: Inhibition of CYP1A2 in human liver microsomes assessed as residual activity at 10 uM using phenacetin as substrate preincubated for 5 mins followed by NADPH addition and measured after 15 mins by LC-MS/MS analysis relative to control
# Format: ADME
# assay-conditions: probe phenacetin, read-out: Activity
// note: answer is a bare numeric in %

Below, 3 compounds whose answers are already recorded.
                                   compound  readout_unit  observed_result
0  CC(=O)N1CCN(c2ccc(OCC3COC(Cn4ccnc4)(c4ccc(Cl)cc4Cl)O3)cc2)CC1 (centres undefined)             %             92.5
1  C=CC(=O)Nc1cc2c(Nc3ccc(F)c(Cl)c3)ncnc2cc1OCc1cn(Cc2ccc(Cl)cc2)nn1             %             60.8
2  C=CC(=O)Nc1cc2c(Nc3ccc(F)c(Cl)c3)ncnc2cc1OCc1cn(Cc2ccc(F)cc2)nn1             %             51.1

Attention now shifts to the item below.
[in] # return recorded activity at 0.25 h, 10 µM for entry C=CC(=O)Nc1cc2c(Nc3ccc(F)c(Cl)c3)ncnc2cc1OCc1cn(Cc2cccc(F)c2)nn1
[out] 52.5

Data origin: ChEMBL document CHEMBL4371069
